Tested on: FB
Test method notes: Euclidean distance of Cell Painting phenotypic profile (signed KS, 77 features) to DMSO centroid (dimensionless distance); 5 or 10 uM (library dependent); higher = stronger phenotypic change vs DMSO (phenoactivity)
Condition set: 48 h
Structures can show the parent of a compound that is named as a salt.
Recorded Euclidean distance by entry
// return a plain number; no unit text

| Compound | Subject of test | Euclidean distance |
| --- | --- | --- |
| Cc1c(C)c2c(c(C)c1O)CCC(C)(COc1ccc(CC3SC(=O)NC3=O)cc1)O2 (stereo unspecified) | FB | 0.893 |
| CC1(C)S[C@@H]2[C@H](NC(=O)[C@H](N)c3ccccc3)C(=O)N2[C@H]1C(=O)OCOC(=O)[C@@H]1N2C(=O)C[C@H]2S(=O)(=O)C1(C)C [Sultamicillin Tosylate] | FB | 1.01 |
| Cc1ccc(S(=O)(=O)Cc2nc(-c3ccc(C(=O)NCc4cccnc4)cc3)oc2C)cc1 | FB | 1.11 |
| COCCNCCc1cccc(Nc2ncc3c(n2)-c2ccccc2[C@H](c2ccccc2F)C3)c1 [Derazantinib(ARQ-087)] | FB | 3.69 |
| CCC[S+]([O-])c1ccc2[nH]c(NC(=O)OC)nc2c1 (stereo unspecified) [Albendazole Oxide] | FB | 0.918 |
| Cc1nc(C)c(Cl)c(O)c1Cl | FB | 1.15 |
| CCCCC[C@H](O)/C=C/[C@H]1[C@H](O)CC(=O)[C@@H]1CCCCCCC(=O)O | FB | 1.16 |
| Nc1nc(N)c2nc(-c3cccc(O)c3)c(-c3cccc(O)c3)nc2n1 | FB | 1.45 |
| OC[C@@H](O)[C@@H](O[C@@H]1O[C@H](CO)[C@H](O)[C@H](O)[C@H]1O)[C@H](O)[C@@H](O)CO | FB | 0.733 |
| CCCCCCCCCC(=O)CC(O)S(=O)(=O)O (stereo unspecified) [Sodium Houttuyfonate] | FB | 0.985 |

Look up Euclidean distance for this compound: O=C(O)CSCC(=O)NC1CCSC1=O (stereo unspecified)
1.07

Look up Euclidean distance for this compound: COC(=O)N[C@H](C(=O)N1CCC[C@H]1c1nc(-c2ccc3c(c2)O[C@@H](c2ccccc2)n2c-3cc3cc(-c4c[nH]c([C@@H]5CCCN5C(=O)[C@@H](NC(=O)OC)C(C)C)n4)ccc32)c[nH]1)C(C)C
1.97

Look up Euclidean distance for this compound: CC(=O)N1C[C@H](O)C[C@H]1C(=O)O
0.895

Look up Euclidean distance for this compound: CC(=O)NS(=O)(=O)c1ccc(N)cc1 [Sulfacetamide]
1.07

Look up Euclidean distance for this compound: CC(Cc1ccc(O)c(O)c1)C(C)Cc1ccc(O)c(O)c1 (stereo unspecified) [Nordihydroguaiaretic acid (NDGA)]
1.54

Look up Euclidean distance for this compound: O=C(CCCCCCNC(=O)c1cnc(N(c2ccccc2)c2ccccc2Cl)nc1)NO
3.07
